- System: Fibroblast
- METHOD_NOTES: Multiplex assay against human fibroblast
- Assay type: toxicity, cell-based
- EXPERIMENTAL_SETUP: 24 h, 10 µM, compound concentration 10 uM, replicate 2
Classification field: enter Condition met for Population Mitochondria Different-Phenotype (%) values not below 5%, Condition not met for values below it.

>  <MOLECULE>
CC[C@H]1OC(=O)[C@H](C)[C@@H](O[C@H]2C[C@@](C)(OC)[C@@H](O)[C@H](C)O2)[C@H](C)[C@@H](O[C@@H]2O[C@H](C)C[C@H](N(C)C)[C@H]2O)[C@@]2(C)CC(C)=C(O2)[C@H](C)[C@@H](O)[C@]1(C)O

>  <TARGET_UNDER_TEST>
Fibroblast

>  <CLASSIFICATION>
Condition met

$$$$
>  <MOLECULE>
Oc1c(CN2CCN(c3ccccn3)CC2)cc(Cl)c2cccnc12

>  <TARGET_UNDER_TEST>
Fibroblast

>  <CLASSIFICATION>
Condition met

$$$$
>  <MOLECULE>
C[C@H](NC(=O)c1c(C(F)F)nn(C)c1Oc1cccc(C(F)(F)F)c1)c1ccc(C(=O)O)cc1

>  <TARGET_UNDER_TEST>
Fibroblast

>  <CLASSIFICATION>
Condition not met

$$$$
>  <MOLECULE>
CCNC1(C(N)=O)CCN(c2ncnc3c2nc(-c2ccccc2Cl)n3-c2ccc(Cl)cc2)CC1

>  <TARGET_UNDER_TEST>
Fibroblast

>  <CLASSIFICATION>
Condition met

$$$$
>  <MOLECULE>
Cl.Clc1ccc2nsnc2c1NC1=NCCN1 [TIZANIDINE HYDROCHLORIDE]

>  <TARGET_UNDER_TEST>
Fibroblast

>  <CLASSIFICATION>
Condition met

$$$$
>  <MOLECULE>
COc1cc(NC(=O)CCN2CCC(OC(=O)Nc3ccccc3-c3ccccc3)CC2)c(Cl)cc1CNC[C@H](O)c1ccc(O)c2[nH]c(=O)ccc12

>  <TARGET_UNDER_TEST>
Fibroblast

>  <CLASSIFICATION>
Condition met

$$$$

====

- Tested on: U2OS
- METHOD_NOTES: Multiplex assay against U2OS
- Assay type: toxicity, cell-based
- EXPERIMENTAL_SETUP: human, 12 h, 10 µM, compound concentration 10 uM, replicate 2
Measured Population Fragmented Nuclei (%), listed per entry.

>  <TEST_SMILES>
O=C(NCC(=O)N1CC[C@H](N[C@H]2CC[C@@](O)(c3ccc(-c4ncccn4)cn3)CC2)C1)c1cccc(C(F)(F)F)c1

>  <Population Fragmented Nuclei (%)>
22

$$$$
>  <TEST_SMILES>
CCNC1(C(N)=O)CCN(c2ncnc3c2nc(-c2ccccc2Cl)n3-c2ccc(Cl)cc2)CC1

>  <Population Fragmented Nuclei (%)>
21

$$$$
>  <TEST_SMILES>
CCCn1c(=O)c2[nH]c(C3CCCC3)nc2n(CCC)c1=O

>  <Population Fragmented Nuclei (%)>
21

$$$$

====

- Tested on: U2OS
- METHOD_NOTES: Multiplex assay against U2OS
- Assay type: toxicity, cell-based
- EXPERIMENTAL_SETUP: human, 24 h, 1 µM, compound concentration 1 uM, replicate 2
ASSAY_METRIC: Population Membrane Permeable-Phenotype (%)

>  <COMPOUND>
N[C@@]1(C(=O)O)CO[C@H]2[C@H](C(=O)O)[C@H]21

>  <TARGET_UNDER_TEST>
U2OS

>  <OBSERVED_VALUE>
12

$$$$
>  <COMPOUND>
CCCn1c(=O)c2[nH]c(C3CCCC3)nc2n(CCC)c1=O

>  <TARGET_UNDER_TEST>
U2OS

>  <OBSERVED_VALUE>
8

$$$$
>  <COMPOUND>
CC[C@H]1OC(=O)[C@H](C)[C@@H](O[C@H]2C[C@@](C)(OC)[C@@H](O)[C@H](C)O2)[C@H](C)[C@@H](O[C@@H]2O[C@H](C)C[C@H](N(C)C)[C@H]2O)[C@@]2(C)CC(C)=C(O2)[C@H](C)[C@@H](O)[C@]1(C)O

>  <TARGET_UNDER_TEST>
U2OS

>  <OBSERVED_VALUE>
14

$$$$
>  <COMPOUND>
O=C(O)c1cc2ccccc2c(Cc2c(O)c(C(=O)O)cc3ccccc23)c1O

>  <TARGET_UNDER_TEST>
U2OS

>  <OBSERVED_VALUE>
11

$$$$
>  <COMPOUND>
COc1cc(NC(=O)CCN2CCC(OC(=O)Nc3ccccc3-c3ccccc3)CC2)c(Cl)cc1CNC[C@H](O)c1ccc(O)c2[nH]c(=O)ccc12

>  <TARGET_UNDER_TEST>
U2OS

>  <OBSERVED_VALUE>
5

$$$$
>  <COMPOUND>
Cl.Clc1ccc2nsnc2c1NC1=NCCN1 [TIZANIDINE HYDROCHLORIDE]

>  <TARGET_UNDER_TEST>
U2OS

>  <OBSERVED_VALUE>
7

$$$$
>  <COMPOUND>
Cc1ccc(F)cc1C(=O)Nc1ccc(C(=O)N2Cc3cccn3Cc3ccccc32)c(Cl)c1

>  <TARGET_UNDER_TEST>
U2OS

>  <OBSERVED_VALUE>
11

$$$$
>  <COMPOUND>
Cc1ccc(C(C)(O)c2nc3ccccc3s2)c(C)c1 (stereo not drawn)

>  <TARGET_UNDER_TEST>
U2OS

>  <OBSERVED_VALUE>
6

$$$$

Data provenance: ChEMBL document CHEMBL5058577
